Values from the supplement of paper PMC10065799

- Assay System: Fes (UniProt P07332)
- Sequence (P07332 whole entry, looked up): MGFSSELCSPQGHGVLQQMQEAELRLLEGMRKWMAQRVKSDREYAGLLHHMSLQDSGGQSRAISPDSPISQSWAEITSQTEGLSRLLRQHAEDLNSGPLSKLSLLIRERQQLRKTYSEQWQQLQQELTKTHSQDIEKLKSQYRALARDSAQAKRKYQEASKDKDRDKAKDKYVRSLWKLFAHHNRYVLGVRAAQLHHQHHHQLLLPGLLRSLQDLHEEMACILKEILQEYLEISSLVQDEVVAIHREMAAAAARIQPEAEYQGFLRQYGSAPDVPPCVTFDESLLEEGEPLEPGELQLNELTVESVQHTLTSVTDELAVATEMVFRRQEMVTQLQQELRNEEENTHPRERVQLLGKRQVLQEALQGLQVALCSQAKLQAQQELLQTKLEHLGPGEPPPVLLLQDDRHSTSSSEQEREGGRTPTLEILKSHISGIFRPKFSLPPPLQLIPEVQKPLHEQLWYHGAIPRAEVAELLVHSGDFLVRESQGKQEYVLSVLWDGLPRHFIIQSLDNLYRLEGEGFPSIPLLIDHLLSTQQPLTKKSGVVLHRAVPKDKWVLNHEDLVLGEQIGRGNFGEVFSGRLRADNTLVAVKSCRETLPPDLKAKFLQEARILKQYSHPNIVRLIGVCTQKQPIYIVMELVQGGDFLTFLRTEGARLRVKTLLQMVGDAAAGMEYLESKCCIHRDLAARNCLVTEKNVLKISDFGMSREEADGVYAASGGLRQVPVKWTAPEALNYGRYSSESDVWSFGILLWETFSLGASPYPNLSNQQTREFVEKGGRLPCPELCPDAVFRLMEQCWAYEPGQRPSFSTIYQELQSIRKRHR
- Measurement Protocol: phosphorylation enrichment, bacterial display (enrichment ratio); higher = better substrate or ligand; peptides without Tyr show the background
Everything with phosphorylation enrichment lower than 1 is False; everything else, including exactly 1, is True.

Please review the entries below; each comes with its answer.
Entry Sequence: KNEVLYDEENH [ARFGEF1_Y314_G316E]
Category: True
//
Entry Sequence: HKLSYYEYDFE [BTK_Y40]
Category: True
//
Entry Sequence: NTDETYCIDNE [TUBB2B_Y200]
Category: True

Query block: Reported phosphorylation enrichment at or above 1? QGIPRYHSQSP [FOXF1_Y331]
Result block: True

Query block: Reported phosphorylation enrichment at or above 1? HSKGIYYVQLE [MGAT4B_Y262_Q257H]
Result block: True

Query block: Reported phosphorylation enrichment at or above 1? NVDGKYSYLKV [GRM3_Y478_G475D]
Result block: False

Query block: Reported phosphorylation enrichment at or above 1? IGMFSYVMLAS [GGCX_Y301]
Result block: True

Query block: Reported phosphorylation enrichment at or above 1? REGAKYVSHGT [ASS1_Y113_A118T]
Result block: False

Query block: Reported phosphorylation enrichment at or above 1? ISSLDYISKSK [VAV3_Y294_T298S]
Result block: False

Query block: Reported phosphorylation enrichment at or above 1? DTSKMYIPHTD [EXPH5_Y782]
Result block: False

Query block: Reported phosphorylation enrichment at or above 1? MFCASYDTKQE [F10_Y407_G406S]
Result block: True

Query block: Reported phosphorylation enrichment at or above 1? ATCKAYGQALA [TKT_Y321_R318C]
Result block: False

Query block: Reported phosphorylation enrichment at or above 1? THLAPYSDELR [APOA1_Y190]
Result block: False

Query block: Reported phosphorylation enrichment at or above 1? EEQKKYYNAVK [SCN5A_Y1494_M1498V]
Result block: False

Query block: Reported phosphorylation enrichment at or above 1? LENQTYFKSFE [AKAP9_Y2482]
Result block: True

Query block: Reported phosphorylation enrichment at or above 1? VNKLVYENING [FRS2_Y306]
Result block: False

Query block: Reported phosphorylation enrichment at or above 1? QWLEQYTQAIE [LSP1_Y234]
Result block: True

Query block: Reported phosphorylation enrichment at or above 1? FDAHNYHPLPV [OAT_Y55_G51D_YF]
Result block: False

Query block: Reported phosphorylation enrichment at or above 1? CTTIHYNYRCN [TP53_Y234_M237R]
Result block: True

Query block: Reported phosphorylation enrichment at or above 1? QYNMQYSSSAA [ERBB2IP_Y981_I979M]
Result block: True

* * *

- Assay System: Jak2 (UniProt O60674)
- Sequence (O60674 whole entry, looked up): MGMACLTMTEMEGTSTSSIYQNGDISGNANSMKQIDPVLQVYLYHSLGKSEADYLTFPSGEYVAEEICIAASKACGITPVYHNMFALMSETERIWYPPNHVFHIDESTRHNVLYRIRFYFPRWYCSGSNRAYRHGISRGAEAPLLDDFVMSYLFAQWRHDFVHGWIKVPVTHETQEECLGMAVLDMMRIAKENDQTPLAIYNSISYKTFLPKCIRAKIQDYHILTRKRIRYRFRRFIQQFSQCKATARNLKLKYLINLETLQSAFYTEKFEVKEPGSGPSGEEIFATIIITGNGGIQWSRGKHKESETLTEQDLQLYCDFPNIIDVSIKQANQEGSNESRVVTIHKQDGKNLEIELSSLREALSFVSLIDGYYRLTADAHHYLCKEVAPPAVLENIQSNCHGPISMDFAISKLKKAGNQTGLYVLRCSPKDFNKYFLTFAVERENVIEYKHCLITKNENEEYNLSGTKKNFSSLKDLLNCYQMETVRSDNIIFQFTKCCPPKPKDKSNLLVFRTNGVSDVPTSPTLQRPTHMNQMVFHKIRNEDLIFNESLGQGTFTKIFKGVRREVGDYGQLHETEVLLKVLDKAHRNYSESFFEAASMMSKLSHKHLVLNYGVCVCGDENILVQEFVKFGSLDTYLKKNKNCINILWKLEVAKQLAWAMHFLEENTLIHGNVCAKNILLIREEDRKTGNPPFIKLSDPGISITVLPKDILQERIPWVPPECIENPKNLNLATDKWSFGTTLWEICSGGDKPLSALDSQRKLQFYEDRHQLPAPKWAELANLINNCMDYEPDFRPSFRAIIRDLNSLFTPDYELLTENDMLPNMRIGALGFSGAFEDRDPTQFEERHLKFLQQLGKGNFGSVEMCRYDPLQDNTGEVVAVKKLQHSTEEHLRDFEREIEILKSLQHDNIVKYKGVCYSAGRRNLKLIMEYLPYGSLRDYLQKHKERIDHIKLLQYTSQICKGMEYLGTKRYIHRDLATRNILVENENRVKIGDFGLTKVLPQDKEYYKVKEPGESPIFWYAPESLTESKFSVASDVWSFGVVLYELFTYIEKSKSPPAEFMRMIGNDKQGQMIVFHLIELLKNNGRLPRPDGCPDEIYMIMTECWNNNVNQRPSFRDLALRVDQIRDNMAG
- Measurement Protocol: phosphorylation enrichment, bacterial display (enrichment ratio); higher = better substrate or ligand; peptides without Tyr show the background
Everything with phosphorylation enrichment lower than 1 is Condition not met; everything else, including exactly 1, is Condition met.

Please review the entries below; each comes with its answer.
Entry Sequence: VLTPKYRGGGG [HBA1_Y141_S139P]
Assay System: Jak2 (UniProt O60674)
Category: Condition not met
//
Entry Sequence: AKFPFYEKNKK [FOXL2_Y91]
Assay System: Jak2 (UniProt O60674)
Category: Condition not met

Query block: Reported phosphorylation enrichment at or above 1? LSIQCYLRALD [HMGCS2_Y262]
Result block: Condition met

Query block: Reported phosphorylation enrichment at or above 1? VGTKRYMALEV [ACVRL1_Y375_P378L]
Result block: Condition not met

* * *

- Assay System: EPHB1 (UniProt P54762)
- Sequence (P54762 whole entry, looked up): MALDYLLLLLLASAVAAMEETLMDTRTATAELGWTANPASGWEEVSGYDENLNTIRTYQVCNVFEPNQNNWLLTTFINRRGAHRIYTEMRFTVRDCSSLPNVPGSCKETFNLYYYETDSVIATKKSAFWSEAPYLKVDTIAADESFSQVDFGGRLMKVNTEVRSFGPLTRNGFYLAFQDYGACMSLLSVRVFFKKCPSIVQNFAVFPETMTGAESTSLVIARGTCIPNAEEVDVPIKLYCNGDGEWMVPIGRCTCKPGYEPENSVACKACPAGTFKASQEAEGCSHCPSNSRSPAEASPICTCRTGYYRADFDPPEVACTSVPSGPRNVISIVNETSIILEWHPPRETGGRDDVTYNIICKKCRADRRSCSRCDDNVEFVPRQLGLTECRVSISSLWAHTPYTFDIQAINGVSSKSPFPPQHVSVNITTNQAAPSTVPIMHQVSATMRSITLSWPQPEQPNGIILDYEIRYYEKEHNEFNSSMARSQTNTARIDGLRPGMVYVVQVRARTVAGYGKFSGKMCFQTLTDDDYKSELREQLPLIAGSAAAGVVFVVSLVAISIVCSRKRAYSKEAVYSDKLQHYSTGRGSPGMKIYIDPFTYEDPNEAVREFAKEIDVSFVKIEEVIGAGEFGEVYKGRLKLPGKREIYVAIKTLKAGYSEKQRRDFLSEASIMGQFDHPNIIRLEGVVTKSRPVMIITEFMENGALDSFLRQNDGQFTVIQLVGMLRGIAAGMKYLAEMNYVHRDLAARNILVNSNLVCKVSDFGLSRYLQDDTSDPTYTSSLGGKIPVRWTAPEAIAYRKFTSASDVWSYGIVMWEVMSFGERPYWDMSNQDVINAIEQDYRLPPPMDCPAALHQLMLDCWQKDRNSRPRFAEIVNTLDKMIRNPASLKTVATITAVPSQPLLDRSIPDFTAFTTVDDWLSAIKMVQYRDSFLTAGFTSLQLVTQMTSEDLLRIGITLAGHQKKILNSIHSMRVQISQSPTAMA
- Measurement Protocol: phosphorylation enrichment, bacterial display (enrichment ratio); higher = better substrate or ligand; peptides without Tyr show the background
Class assignment keyed on phosphorylation enrichment, ranges low group = under 0.6, middle group = from 0.6 up to 0.8, high group = 0.8 and over

Please review the entries below; each comes with its answer.
Entry Sequence: RLASVYTKRCS [CPT2_Y508_P504L]
Category: middle group
--
Entry Sequence: KYVVVYFRETD [IL17RB_Y447_I451T]
Category: middle group
--
Entry Sequence: QKPLDYFRVNL [GALE_Y104_YF]
Category: high group
--
Entry Sequence: HPHECYAKVFD [ALB_Y394_D389H]
Category: middle group

Query block: // return the class label for LGKLIYPVGFW [NTHL1_Y177]
Result block: high group

Query block: // return the class label for RLQEDYDHSFF [ESD_Y258_G257D_YF]
Result block: high group

Query block: // return the class label for PMQLPYDSRWE [PDGFRA_Y582]
Result block: low group

Query block: // return the class label for INSLKYAFNVS [EIF2B5_Y583_I587V_YF]
Result block: low group

Query block: // return the class label for TNIKRYHIAKV [HARS1_Y150]
Result block: low group

Query block: // return the class label for GEDLSYGDVPP [IRS1_Y151]
Result block: middle group

* * *

- Tested on: c-Src
- Measurement Protocol: phosphorylation enrichment, bacterial display (enrichment ratio); higher = better substrate or ligand; peptides without Tyr show the background
Everything with phosphorylation enrichment lower than 0.4 is f; everything else, including exactly 0.4, is t.

Entry Sequence: GHLYANDWISI [BEST1_Y227_Y227N]
Category: t

Query block: Reported phosphorylation enrichment at or above 0.4? QRRNVYYYSYL [PTEN_Y176_Y174N]
Result block: t

Query block: Reported phosphorylation enrichment at or above 0.4? MHFSNYVSKGS [PDGFRA_Y849_D846Y_YF]
Result block: f

Query block: Reported phosphorylation enrichment at or above 0.4? SYDLDYDSVQP [MYC_Y16_N11S]
Result block: t

Query block: Reported phosphorylation enrichment at or above 0.4? CTTIHYIFMCN [TP53_Y234_N235I_YF]
Result block: f

Query block: Reported phosphorylation enrichment at or above 0.4? FQKNIYSEELR [LMNA_Y211]
Result block: t

Query block: Reported phosphorylation enrichment at or above 0.4? YIIFIYAMKKK [SLCO1B1_Y645_L643F]
Result block: f

* * *

- Assay System: SHP2-C SH2;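 further: peptide library displayed on the E. coli surface as eCPX fusions, selected cells deep-sequenced, score is each peptide's frequency after selection divided by its frequency in the input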
- Measurement Protocol: SH2 binding enrichment of the phosphorylated peptide, bacterial display (enrichment ratio); higher = better substrate or ligand; peptides without Tyr show the background
Everything with SH2 binding enrichment lower than 0.7 is -1; everything else, including exactly 0.7, is 1.

Please review the entries below; each comes with its answer.
Entry Sequence: LENSTYQFIRV [CRB1_Y760_YF]
Category: -1
--
Entry Sequence: HSKGIYYVQLE [MGAT4B_Y262_Q257H]
Category: 1
--
Entry Sequence: FADIAYNYRQG [PAH_Y166_H170Q]
Category: -1
--
Entry Sequence: PTYEHYANSTQ [SLC12A3_Y70]
Category: -1
--
Entry Sequence: VGTKRYMAPDV [ACVRL1_Y375_E379D]
Category: -1
--
Entry Sequence: SLMGCYNLTFM [HS6ST3_Y323_V320M]
Category: -1
--
Entry Sequence: EGWQVYRLGAR [MISP_Y95]
Category: -1
--
Entry Sequence: NSIGNYFKPWF [DHCR24_Y299_YF]
Category: 1

Query block: Reported SH2 binding enrichment at or above 0.7? ALLTKYSHSSM [DSCC1_Y374]
Result block: -1

Query block: Reported SH2 binding enrichment at or above 0.7? SVTCTYSPALI [TP53_Y126_N131I]
Result block: -1

* * *

- Test system: c-Abl (mouse)
- Measurement Protocol: phosphorylation enrichment, bacterial display (enrichment ratio); higher = better substrate or ligand; peptides without Tyr show the background
Readout: phosphorylation enrichment
Answer using only a numeral; do not append any unit.

Entry Sequence: LENSTYQFIRV [CRB1_Y760_YF]
phosphorylation enrichment: 1.18

Query block: Report its phosphorylation enrichment with c-Abl (mouse) as the test system: HFIKLYEEKTG [PARP1_Y618_M615I]
Result block: 0.781

Query block: Report its phosphorylation enrichment with c-Abl (mouse) as the test system: QTSTDYDIRFF [CSNK2A1_Y131_L128S_YF]
Result block: 1.18

Query block: Report its phosphorylation enrichment with c-Abl (mouse) as the test system: SARVRYLMAEK [LDHB_Y173_F171V]
Result block: 0.472

* * *

- Assay System: EPHB2 (UniProt P29323)
- Sequence (P29323 whole entry, looked up): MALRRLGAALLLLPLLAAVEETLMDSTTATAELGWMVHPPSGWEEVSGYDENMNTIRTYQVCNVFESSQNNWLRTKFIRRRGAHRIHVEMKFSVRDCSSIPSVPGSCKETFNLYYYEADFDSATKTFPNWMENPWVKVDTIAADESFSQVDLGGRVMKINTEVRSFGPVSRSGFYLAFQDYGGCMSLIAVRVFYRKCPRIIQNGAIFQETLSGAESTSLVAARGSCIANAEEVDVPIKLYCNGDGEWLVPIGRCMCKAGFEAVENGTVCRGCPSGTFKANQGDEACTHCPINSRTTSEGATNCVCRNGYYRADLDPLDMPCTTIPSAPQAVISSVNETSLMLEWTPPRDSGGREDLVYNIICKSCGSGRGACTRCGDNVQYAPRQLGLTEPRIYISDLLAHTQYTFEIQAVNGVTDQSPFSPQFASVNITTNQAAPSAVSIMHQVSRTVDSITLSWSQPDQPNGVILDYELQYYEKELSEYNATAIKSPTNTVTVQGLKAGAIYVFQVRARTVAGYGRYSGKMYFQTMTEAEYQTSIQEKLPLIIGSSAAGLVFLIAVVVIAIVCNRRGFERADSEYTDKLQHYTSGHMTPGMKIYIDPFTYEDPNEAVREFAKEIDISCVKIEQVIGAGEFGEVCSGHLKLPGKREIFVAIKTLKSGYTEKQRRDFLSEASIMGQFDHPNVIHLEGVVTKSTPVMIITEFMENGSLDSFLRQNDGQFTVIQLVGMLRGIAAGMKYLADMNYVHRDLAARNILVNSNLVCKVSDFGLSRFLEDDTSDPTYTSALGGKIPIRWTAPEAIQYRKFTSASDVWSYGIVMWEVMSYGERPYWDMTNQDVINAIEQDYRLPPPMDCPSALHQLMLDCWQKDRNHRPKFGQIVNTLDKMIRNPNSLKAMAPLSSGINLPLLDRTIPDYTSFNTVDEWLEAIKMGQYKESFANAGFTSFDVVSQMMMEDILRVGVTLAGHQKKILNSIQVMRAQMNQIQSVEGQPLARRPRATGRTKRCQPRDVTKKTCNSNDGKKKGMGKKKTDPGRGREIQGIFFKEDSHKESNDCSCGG
- Measurement Protocol: phosphorylation enrichment, bacterial display (enrichment ratio); higher = better substrate or ligand; peptides without Tyr show the background
Everything with phosphorylation enrichment lower than 0.7 is class 0; everything else, including exactly 0.7, is class 1.

Entry Sequence: DRSSLYLVAGP [KIAA1614_Y1083_N1078D]
Assay System: EPHB2 (UniProt P29323)
Category: class 1

Entry Sequence: LYEDHYLLGTS [ASS1_Y87_R86H]
Assay System: EPHB2 (UniProt P29323)
Category: class 1

Entry Sequence: PATINYLFEKG [NDUFS8_Y84_P85L]
Assay System: EPHB2 (UniProt P29323)
Category: class 0

Entry Sequence: YRQNGYIPGSN [PCDHGA1_Y895_V894G]
Assay System: EPHB2 (UniProt P29323)
Category: class 0

Entry Sequence: ELRGTYTSLQQ [KIF3C_Y574]
Assay System: EPHB2 (UniProt P29323)
Category: class 0

Entry Sequence: CRVEPYGENFN [APOA4_Y310_R305C]
Assay System: EPHB2 (UniProt P29323)
Category: class 0

Entry Sequence: SIYKDYYRYNF [PLA2G2D_Y85]
Assay System: EPHB2 (UniProt P29323)
Category: class 1

Entry Sequence: GLAELYEFKKK [CKAP5_Y1854_YF]
Assay System: EPHB2 (UniProt P29323)
Category: class 0

# ---- query sequence ----
Query block: Reported phosphorylation enrichment at or above 0.7? MNPPPYSQFLS [FGF23_Y154]
Result block: class 0
